Assay: Toxicity upon intraperitoneal administration
Settings: mouse, in vivo, ip
Measured Parameter: LD50 (mg/kg)
Your answer should be a plain number; it is taken to be in mg/kg.

LD50 reported for this compound `CN(C)CCOC(=O)CCC(=O)O` : 3040

Source of measurements: patent US4691046A
